- TESTED TARGET: AKT Kinase-NanoLuc fusion in HEK-293 cells (Homo sapiens, UniProt P31749)
- Construct: host or cells: HEK-293
- Sequence (P31749 whole entry, the tested form may be a part): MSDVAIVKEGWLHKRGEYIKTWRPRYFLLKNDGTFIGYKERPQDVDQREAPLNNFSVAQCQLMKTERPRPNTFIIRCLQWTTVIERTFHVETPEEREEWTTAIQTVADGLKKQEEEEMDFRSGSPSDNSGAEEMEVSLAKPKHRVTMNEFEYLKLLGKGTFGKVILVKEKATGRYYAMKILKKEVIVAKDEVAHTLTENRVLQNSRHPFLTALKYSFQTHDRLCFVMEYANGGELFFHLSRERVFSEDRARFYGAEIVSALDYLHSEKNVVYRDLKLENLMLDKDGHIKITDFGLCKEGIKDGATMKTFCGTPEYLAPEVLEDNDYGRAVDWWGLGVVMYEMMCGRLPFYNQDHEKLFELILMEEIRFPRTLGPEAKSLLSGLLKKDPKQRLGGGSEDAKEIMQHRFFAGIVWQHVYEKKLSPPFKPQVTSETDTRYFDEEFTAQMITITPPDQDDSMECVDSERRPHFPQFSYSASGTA
- ASSAY DETAILS: NanoBRET target engagement assay in transfected HEK-293 cells, AKT
- Format: cell-based
- COND: Table 28, NanoBRET, HEK-293 cells; read-out: AKT1 (Cellular) IC50
pIC50: −log10 of the molar value.
pIC50 reference
OUTCOME MEASURE: pIC50

>>> observed_measurement("C[C@@H]1CN(Cc2ccccn2)C[C@H](C)[C@@]1(O)c1c(F)cc(-c2ccnc3[nH]cc(F)c23)cc1F [Compound 17]")
4.62
>>> observed_measurement("Cc1cc(-c2ccnc3[nH]cc(F)c23)ccc1[C@@]1(O)[C@H](C)CN(C2CCC2)C[C@@H]1C [Compound 54]")
5.53
>>> observed_measurement("Cc1cc(-c2ccnc3[nH]cc(F)c23)ccc1[C@@]1(O)[C@H](C)CN(C2COC2)C[C@@H]1C [Compound 24]")
4.25
>>> observed_measurement("C[C@@H]1CNC[C@H](C)[C@@]1(O)c1ccc(-c2ccnc3[nH]cc(F)c23)cc1OC(F)(F)F [Compound 14]")
5.31
>>> observed_measurement("C[C@@H]1CNC[C@H](C)[C@@]1(O)c1ccc(-c2ccnc3[nH]cc(F)c23)cc1Cl [Compound 1]")
4.67
>>> observed_measurement("Cc1cc(-c2ccnc3[nH]cc(Cl)c23)ccc1CN [Compound 254]")
5.41
>>> observed_measurement("Cc1cc(-c2ccnc3[nH]cc(F)c23)cc(F)c1[C@@]1(O)[C@H](C)CN(C(C)C)C[C@@H]1C [Compound 305]")
4.53

* * *

pIC50 reference
- TESTED TARGET: AKT Kinase-NanoLuc fusion in HEK-293 cells (Homo sapiens, UniProt P31749)
- Construct: host or cells: HEK-293
- ASSAY DETAILS: NanoBRET target engagement assay in transfected HEK-293 cells, AKT
- Format: cell-based
- COND: Table 28, NanoBRET, HEK-293 cells; read-out: AKT1 (Cellular) IC50
pIC50: −log10 of the molar value.
OUTCOME MEASURE: pIC50

>>> observed_measurement("C[C@@H]1CN(C2CCC2)C[C@H](C)[C@@]1(O)c1c(F)cc(-c2ccnc3[nH]cc(F)c23)cc1F")
4.50
>>> observed_measurement("C[C@@H]1CNC[C@H](C)[C@@]1(O)c1c(F)cc(-c2ccnc3[nH]cc(F)c23)cc1F")
4.79
>>> observed_measurement("NCc1ccc(-c2ccnc3[nH]cc(-c4cccnc4)c23)cc1")
5.46
>>> observed_measurement("c1cc(-c2ccc(C3CC4CCC(C3)N4)cc2)c2cc[nH]c2n1 (centres unmarked)")
4.56
>>> observed_measurement("Cc1cc(-c2ccnc3[nH]cc(F)c23)cc(F)c1[C@@]1(O)[C@H](C)CN(C)C[C@@H]1C")
4.59
>>> observed_measurement("Cc1cc(-c2ccnc3[nH]cc(F)c23)cc(F)c1[C@@]1(O)[C@H](C)CN(C2CCS(=O)(=O)CC2)C[C@@H]1C")
4.50

* * *

- TESTED TARGET: LATS2 (Homo sapiens)
- Sequence (Q9NRM7 whole entry): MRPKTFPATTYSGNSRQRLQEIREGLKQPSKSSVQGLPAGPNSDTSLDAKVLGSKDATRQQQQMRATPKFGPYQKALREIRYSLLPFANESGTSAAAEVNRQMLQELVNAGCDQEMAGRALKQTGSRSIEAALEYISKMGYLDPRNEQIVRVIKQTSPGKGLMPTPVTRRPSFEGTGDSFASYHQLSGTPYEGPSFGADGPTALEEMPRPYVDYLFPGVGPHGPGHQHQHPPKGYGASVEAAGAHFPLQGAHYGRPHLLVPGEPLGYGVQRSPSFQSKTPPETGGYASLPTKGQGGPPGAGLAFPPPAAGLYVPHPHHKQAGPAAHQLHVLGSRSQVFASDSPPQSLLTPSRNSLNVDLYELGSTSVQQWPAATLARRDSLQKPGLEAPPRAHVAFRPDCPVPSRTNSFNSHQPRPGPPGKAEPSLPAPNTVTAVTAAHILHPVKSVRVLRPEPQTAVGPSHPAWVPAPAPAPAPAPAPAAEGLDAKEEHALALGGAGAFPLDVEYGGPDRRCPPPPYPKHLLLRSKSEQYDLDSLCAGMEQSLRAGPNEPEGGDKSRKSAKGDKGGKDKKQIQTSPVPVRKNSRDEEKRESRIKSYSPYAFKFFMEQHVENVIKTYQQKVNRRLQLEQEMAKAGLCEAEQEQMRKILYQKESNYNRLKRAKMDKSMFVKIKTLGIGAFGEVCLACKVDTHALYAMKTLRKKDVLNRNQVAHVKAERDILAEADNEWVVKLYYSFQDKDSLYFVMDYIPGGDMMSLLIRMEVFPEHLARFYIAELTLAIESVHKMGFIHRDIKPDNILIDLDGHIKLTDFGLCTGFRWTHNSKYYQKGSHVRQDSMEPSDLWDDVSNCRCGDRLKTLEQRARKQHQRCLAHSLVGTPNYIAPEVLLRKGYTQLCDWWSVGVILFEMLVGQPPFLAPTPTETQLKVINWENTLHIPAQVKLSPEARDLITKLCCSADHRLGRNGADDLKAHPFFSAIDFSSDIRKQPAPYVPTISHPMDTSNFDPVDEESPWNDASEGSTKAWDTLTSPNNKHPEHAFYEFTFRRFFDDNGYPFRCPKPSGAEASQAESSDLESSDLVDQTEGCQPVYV
- ASSAY DETAILS: RBC HotSpot kinase assay (33P-ATP, P81 filter-binding), LATS2
- Type: biochemical
- COND: Table 28, biochemical kinase assay; read-out: LATS2 IC50
OUTCOME MEASURE: IC50 (nM)

>>> observed_measurement("Cc1cc(-c2ccnc3[nH]cc(Cl)c23)ccc1CN")
5.2
>>> observed_measurement("C[C@@H]1CN(C(=O)C2(N)CC(F)(F)C2)C[C@H](C)C1(O)c1c(F)cc(-c2ccnc3[nH]cc(F)c23)cc1F (stereo partly shown)")
29.5
>>> observed_measurement("C[C@@H]1CN(C2CCS(=O)(=O)CC2)C[C@H](C)C1(O)c1c(F)cc(-c2ccnc3[nH]cc(F)c23)cc1F (stereo partly shown)")
6.3
>>> observed_measurement("c1cncc(-c2cc(-c3ccnc4[nH]ccc34)ccc2C2CCNCC2)c1")
48
